Listing of entries alongside the reported pEC50.
Target: T1, human LAG3, full length, stably expressed on cells (human, UniProt P18627 23-525)
T1 construct: whole, on cells; also called CHOK1-human LAG3
T1 sequence (looked up): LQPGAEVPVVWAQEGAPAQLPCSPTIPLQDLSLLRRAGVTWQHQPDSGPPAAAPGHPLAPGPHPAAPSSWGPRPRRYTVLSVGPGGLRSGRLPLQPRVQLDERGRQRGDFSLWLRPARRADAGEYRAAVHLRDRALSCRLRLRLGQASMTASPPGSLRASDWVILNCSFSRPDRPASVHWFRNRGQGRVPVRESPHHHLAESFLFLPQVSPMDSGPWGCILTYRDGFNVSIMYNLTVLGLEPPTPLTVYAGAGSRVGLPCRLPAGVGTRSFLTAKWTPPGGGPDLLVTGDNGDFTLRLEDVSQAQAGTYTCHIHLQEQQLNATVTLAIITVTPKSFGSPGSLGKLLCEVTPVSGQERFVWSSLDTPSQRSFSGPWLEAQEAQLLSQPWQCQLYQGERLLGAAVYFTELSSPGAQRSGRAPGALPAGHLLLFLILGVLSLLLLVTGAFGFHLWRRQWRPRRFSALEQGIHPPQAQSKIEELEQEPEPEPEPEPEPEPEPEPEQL
Experiment: FACS on 293F-human LAG3 cells
// scale note: pEC50 = -log10(conc_M); give the bare number

stdin: Returns the measured pEC50 for the input binder. Input: Antibody 015 (antibody, V domains shown, mouse hybridoma antibody) VH: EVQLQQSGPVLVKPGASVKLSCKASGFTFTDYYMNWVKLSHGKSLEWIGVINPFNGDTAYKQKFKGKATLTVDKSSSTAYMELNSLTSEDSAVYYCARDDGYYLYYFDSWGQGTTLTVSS VL: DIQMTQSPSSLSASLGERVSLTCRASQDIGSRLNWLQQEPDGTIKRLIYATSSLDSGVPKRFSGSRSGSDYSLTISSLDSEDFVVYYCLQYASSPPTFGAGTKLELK
stdout: 8.68

Consider the record given below.
stdin: Returns the measured pEC50 for the input binder. Input: Antibody 047 (antibody, V domains shown, mouse hybridoma antibody) VH: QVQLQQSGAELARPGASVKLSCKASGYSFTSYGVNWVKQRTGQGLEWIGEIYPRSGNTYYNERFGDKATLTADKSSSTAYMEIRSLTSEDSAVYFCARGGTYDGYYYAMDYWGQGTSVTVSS VL: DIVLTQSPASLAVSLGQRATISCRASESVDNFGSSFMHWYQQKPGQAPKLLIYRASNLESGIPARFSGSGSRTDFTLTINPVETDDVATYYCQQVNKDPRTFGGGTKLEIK
stdout: 8.94
